Here the recorded log10(Ki) is given for each entry.
assayTarget: 5-hydroxytryptamine receptor 1D (Homo sapiens, UniProt P28221)
Sequence (P28221 whole entry): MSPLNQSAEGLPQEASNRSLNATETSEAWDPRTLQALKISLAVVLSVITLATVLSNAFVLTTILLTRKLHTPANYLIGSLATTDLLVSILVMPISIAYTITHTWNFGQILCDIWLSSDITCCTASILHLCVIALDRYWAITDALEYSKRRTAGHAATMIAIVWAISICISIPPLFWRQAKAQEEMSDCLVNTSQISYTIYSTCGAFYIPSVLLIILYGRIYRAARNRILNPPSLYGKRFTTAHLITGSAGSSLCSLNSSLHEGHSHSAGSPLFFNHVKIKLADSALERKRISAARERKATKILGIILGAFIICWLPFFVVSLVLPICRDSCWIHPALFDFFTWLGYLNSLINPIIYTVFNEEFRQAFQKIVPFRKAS
quantity: log10(Ki) (log10 of the value in nM)

1. CCCCCCOc1ccc2[nH]c3c(c2c1)CC(N)CC3 (configuration not stated)	3.04
2. CCCCCCCCCCOc1ccc2[nH]cc(CCN)c2c1	1.62
3. CC(C)CCCCCCOc1ccc2[nH]cc(CCN)c2c1	1.62
4. CCCCCCCOc1ccc2[nH]cc(CCN)c2c1	0.69
5. COc1ccc2[nH]c3c(c2c1)CC(N)CC3 (configuration not stated)	3.08
6. CC(C)(C)CCCCCCOc1ccc2[nH]cc(CCN)c2c1	1.20
7. CCCCCCCCCCc1ccc2[nH]cc(CCN)c2c1	2.32
8. NCCc1c[nH]c2ccc(OCCCCC3CCCCC3)cc12	1.74
9. CCCCCCCCCCCOc1ccc2[nH]cc(CCN)c2c1	1.84
10. CCCCCCCCOc1ccc2[nH]cc(CCN)c2c1	0.20
11. CCCCCCCCCOc1ccc2[nH]cc(CCNCCCC)c2c1	2.35
12. CCCCCOc1ccc2[nH]cc(CCN)c2c1	0.18
